molecular target: GLP-1 receptor (UniProt P43220 24-463, limits assumed); assay: cell-based or functional assay
*1 amine or outer side, *2 acyl side, *3 side chain or, on linkers, in order; H or OH if unused. Where no end group is shown, it is not given here. Side-chain parts run from the residue outwards. [ ]: non-standard residue; d: D form. The star is where a group is joined. γGlu = O=C(O)[C@H](CCC(=O)[*:2])N[*:1]; Palmitoyl = CCCCCCCCCCCCCCCC(=O)*; Aib = CC(C)(N)C(=O)O
property name: EC50 (cAMP, nmole) (nmol)
Your answer is read as nmol, so omit the unit and give the number.

// known answers, use as guide
binder: H[Aib]QGTFTSDYSKYLDERAAQDFVQWLLDGGPSSGAPPPSK-NH2 (also: Lys40 branched dual acylation K*K(γE-C16)2) [dual acylated peptide of SEQ ID NO: 161]
EC50 (cAMP, nmole), nmol: 0.007

binder: HXQGTFTSDKSKYLDERAAQDFVQWLLDGGPSSGAPPPS (aib at 2; Lys10 carrying two acylations in a branched formation, K*K(rEC16)2; amide) [dual acylated peptide of SEQ ID NO: 160]
EC50 (cAMP, nmole), nmol: 0.007

binder: H[Aib]QGTFTSDK([γGlu-Palmitoyl])SKYLDERAAQDFVQWLLDGGPSSGAPPPS-NH2 [Analog No. 30: Aib2, K10acyl, E16, A18, L27, D28, G29 + CEX (SEQ ID NO: 28)]
EC50 (cAMP, nmole), nmol: 0.003

## Input Entry HXQGTFTSDKSKYLDERAAQDFVQWLLDGGPSSGAPPPS (aib at 2; Lys10 carrying two acylations in a linear formation, K*(C12-rEC16); amide) [dual acylated peptide of SEQ ID NO: 162] has what EC50 (cAMP, nmole)?
## Output 0.003
